B1: CPEB3 Ribozyme (parent)
chain: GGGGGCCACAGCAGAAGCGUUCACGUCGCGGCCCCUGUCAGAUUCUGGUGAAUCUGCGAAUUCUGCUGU

- Variants of: B1
- Experimental protocol: self-cleavage, relative activity (ratio to wild type); higher = more cleavage; co-transcriptional
Measured property: self-cleavage
// no unit string in output, number only

Prompt line: Entry `GGGGGCAACAGCAGAAGCGUUCACGUCACGGCCCCUGUCAGAUUCUGGUGAAUCUGCGAAUUCUGCUGU` : reported self-cleavage = ?
Response line: 0.128

Prompt line: What self-cleavage value was documented for this variant, `GGGGGCCACAGCAGAAGCGUCCACGUCGCGGCCCCUGUCAGAUUCUCGUGAAUCUGCGAAUUCUGCUGU` ?
Response line: 0.915

Prompt line: Given the variant `GGGGCCCAUAGCAGAAGCGUUCACGUCGCGGCCCCUGUCAGAUUCUGGUGAAUCUGCGAAUUCUGCUGU` , what is its reported self-cleavage?
Response line: 0.412

Prompt line: Given the variant `GGGGGCCACAGCAGAAGCGUUCACGUCGCGGCCCCUGUCAGAUUCUGGUGAGUCUGCGAAUUCUGCUGC` , what is its reported self-cleavage?
Response line: 1.06

Prompt line: // returns reported self-cleavage for input `UGGGGCCACAGCAGAAGCGUUCACGUCGCGGCCCCUGUCAGAUUCUGGUGAAUCGGCGAAUUCUGCUGU`
Response line: 0.118

Prompt line: Can you look up the measured self-cleavage of `GGGGGCCACAGCAGAAGCGUUCACGUCGCGGCCUCUGUCAGAUGCUGGUGAAUCUGCGAAUUCUGCUGU` for me?
Response line: 0.859

Prompt line: Entry under review: `GUGGGCCACAGCAGCAGCGUUCACGUCGCGGCCCCUGUCAGAUUCUGGUGAAUCUGCGAAUUCUGCUGU` . Reported self-cleavage?
Response line: 0.085

Prompt line: // query self-cleavage value for entry `GGGGGCCCCAGCAGAAGCGUUCACGUCGCGGCCCCUGUCAGAUUCUGGGGAAUCUGCGAAUUCUGCUGU`
Response line: 1.01

Prompt line: Consider the variant `GGGGGCCACAGCAGAAGCGUUCACGUCGCGGCCCCUGACAGAUUCUGGUGAAUCUGCGAAAUCUGCUGU` and give its measured self-cleavage.
Response line: 0.782

Prompt line: GET /values?readout=self-cleavage&item= `GGGGGCCACAGCAGAAGCGUUCACGUCGCGGCCCCUGUCAGAUUCUGGUGAAUCUGCCAAUUCUGCUAU`
Response line: 1

Prompt line: Returns the measured self-cleavage for the input variant. Input: `GGGGGCCACAGCAGAAGCGUUGACGUCCCGGCCCCUGUCAGAUUCUGGUGAAUCUGCGAAUUCUGCUGU`
Response line: 0.18

Prompt line: Reported self-cleavage, variant `GGGGGCCACAGCAGAAGCGUUCACGUCGCGGCGCCUGUCAGAUUCUGGUGAAUCUGCGAAUUCUGCCGU` : ____
Response line: 0.777

Prompt line: Quick one: self-cleavage of `GGGGGCCACAGCAGAAGCGUUCCCGUCGCGGCCCCUGUAAGAUUCUGGUGAAUCUGCGAAUUCUGCUGU` ?
Response line: 0.798

Prompt line: Consider the variant shown here: `GAGGGCCACAGCAGAAGCGUUCACGUCGCGGCCCCUGUCAGAUUCUGGUGAAUCUGCGACUUCUGCUGU` What is its recorded self-cleavage?
Response line: 0.0397

Prompt line: Would you mind telling me what self-cleavage value was observed for `GGGGGCCACAGCAGCAGCGUUCACGUCGCGGCCCCUGUCAGAUUCUGGUCAAUCUGCGAAUUCUGCUGU` ?
Response line: 0.808

Prompt line: Which self-cleavage is listed for `GGGGGCCACAGCAGAAGCGUUAACGUCGCGACCCCUGUCAGAUUCUGGUGAAUCUGCGAAUUCUGCUGU` ?
Response line: 0.174

Prompt line: Could you tell me which self-cleavage is on file for `GGGGGCCACAGCAGAAGCGUUCACGUCGCGGCCCCUGUCAGAAUCUGGUGAAUCUGCGAAUACUGCUGU` ?
Response line: 0.587

Prompt line: self-cleavage lookup needed for `GGGGGCCACAGCAGAAGCGUUCACUUCGCGGCCCCUGUCAGAUUCUGGUGAAUCUGCGAAUUCUGCUGG` , thanks.
Response line: 0.183

Prompt line: # get_value(readout='self-cleavage', item= `GGGGGCCACAGCAGAAGUGUUCACGUCGCGGCCCCAGUCAGAUUCUGGUGAAUCUGCGAAUUCUGCUGU` )
Response line: 0.109

Prompt line: Can you share its self-cleavage? I mean this variant: `GGGGGCCACAGCAGAAGCGUUCACAUCGCGGCCUCUGUCAGAUUCUGGUGAAUCUGCGAAUUCUGCUGU`
Response line: 0.185

Prompt line: Query (variant): `GGGGGCCACAGCAGCAGCGUUCACGUCGCGGCCCCUGUCAGAUUCUGGUGAAUCAGCGAAUUCUGCUGU` ; field requested: self-cleavage
Response line: 0.435

Prompt line: Entry `GGGCGCCACAGUAGAAGCGUUCACGUCGCGGCCCCUGUCAGAUUCUGGUGAAUCUGCGAAUUCUGCUGU` has what self-cleavage?
Response line: 0.608

Prompt line: I'd like to know its self-cleavage. The variant in question is `GGGGGCCACAGCAGAAGCAUUCACGUCGCGGCCCCUGUCAGAUUCUGGUGUAUCUGCGAAUUCUGCUGU`
Response line: 0.245

Prompt line: Given `GGGGGCCACAGGAGAAGCGUUCACGUCGCGGCCCCUGUCAGAUUCUGGUGAAACUGCGAAUUCUGCUGU` , state its recorded self-cleavage.
Response line: 0.634

Prompt line: // query self-cleavage value for entry `GGGGGCCACAGCAGAAGCGAUCACGUCGCGGCCCCUGUCAGAUUUUGGUGAAUCUGCGAAUUCUGCUGU`
Response line: 0.144

Prompt line: Dear colleague, I am looking for the recorded self-cleavage of the following variant: `GGGGGCCACAGCAGAAGCGUUCACGUCGCGGCCCCUGUCAGAUUCUGGUGAAUCUGCGAUUUCUUCUGU`
Response line: 0.43

Prompt line: Query: self-cleavage; subject: `GGGGGCCACAGCAGAAGCGUUCACGUCGCGGCCCGUGUAAGAUUCUGGUGAAUCUGCGAAUUCUGCUGU`
Response line: 0.362

Prompt line: Which value of self-cleavage has been reported for `GGGGGCCACAGCAGAAGCGUUCACGUCGCGGCCCCUGUCAGUUUCUGGUGAAUCUGCGAAUUCUGAUGU` in the records?
Response line: 0.461

Prompt line: Query: self-cleavage; subject: `GGGGGCCACAGCAGAAGCAUUCACGUCGCGGCCCCUGUCAGAUUCUGGUGAAUCUGCGAUUUCUGCUGU`
Response line: 0.0747

Prompt line: Fill blank: measured self-cleavage of the variant `GGGGGCCACAGCAGAAGCGUUCACCUCGCGGCCCCUGUCAGAUUCUGAUGAAUCUGCGAAUUCUGCUGU` is ____.
Response line: 0.16

Prompt line: # get_value(readout='self-cleavage', item= `GGUGGCCACAGCAGAAGCGUUCACGUCGCGGCCCCUGUCAGAUCCUGGUGAAUCUGCGAAUUCUGCUGU` )
Response line: 0.127

Prompt line: Param item = `GGGGGCCACAGCAGCAGCGUUCACGUCGCGGCCCCUGUCAAAUUCUGGUGAAUCUGCGAAUUCUGCUGU` ; retrieve measured self-cleavage.
Response line: 0.289

Prompt line: self-cleavage lookup needed for `GGGGGCCACAGCAGAAGCGUUCACGUCGCGGCCCAUGUCAGAUUCUGGUGAAUCUGCGAAUUCUGCUUU` , thanks.
Response line: 0.394

Prompt line: Could you tell me which self-cleavage is on file for `UGGGGCCACAGCAGAAGCGUUAACGUCGCGGCCCCUGUCAGAUUCUGGUGAAUCUGCGAAUUCUGCUGU` ?
Response line: 0.0628

Prompt line: Could you tell me which self-cleavage is on file for `CGGGGCCACAGCAGAAGCGUUCACGUCGCGGCCCCUGUCAGAUUCUGGUGAAUCUGCGAGUUCUGCUGU` ?
Response line: 0.273

Prompt line: Record request: self-cleavage value, item `UGGGGGCACAGCAGAAGCGUUCACGUCGCGGCCCCUGUCAGAUUCUGGUGAAUCUGCGAAUUCUGCUGU`
Response line: 0.126

Prompt line: Record request: self-cleavage value, item `GGGGGCCACAACAGAAGCGUUCACGUCGCGGCCCCUGUCAGAUUCUUGUGAAUCUGCGAAUUCUGCUGU`
Response line: 0.937

Prompt line: Any idea what self-cleavage was measured for `GGGGGCCACAGCAGAAGCGUUCACGUCGCGGCCUCUGUCAGAUUUUGGUGAAUCUGCGAAUUCUGCUGU` ?
Response line: 1.03

Prompt line: Could you tell me which self-cleavage is on file for `GGGGACCACAGCAGAAGCGUUCACGUCGCGGCCCCUGUCAGAUUCUGGUGAAUCUGCGAAUCCUGCUGU` ?
Response line: 0.423

Prompt line: Given the variant `GGGGGCCACAGCAGAAUCGUUCACGUCGCGGCCCCUGUAAGAUUCUGGUGAAUCUGCGAAUUCUGCUGU` , what is its reported self-cleavage?
Response line: 0.167

Prompt line: What does the record list as self-cleavage for `GGGGGCCACAGCAGAAGCGUUCACGUCGCGGCCCCUGUCACAUUCUGGUGAAUCUGCGGAUUCUGCUGU` ?
Response line: 0.845

Prompt line: Name the reported self-cleavage value associated with the variant `GGGGGCCACAGCAGAAGCCUUCACGUCGCGGCCCCUGUCAGAUUCUGGUGAAUCUGCGAAUUCUGCUAU`
Response line: 0.201

Prompt line: Please report the recorded self-cleavage for `GGGGGCCACAGCAGAAGCGUUCACGUCGCGGCCCAUGUCAGAUUCUGGUGAAUCUACGAAUUCUGCUGU` .
Response line: 0.218

Prompt line: Entry `GGGGGCCACAGCAGAAGCGUUCACGUCGCGGACCCUGUCAGAUUCUGGUGAUUCUGCGAAUUCUGCUGU` : reported self-cleavage = ?
Response line: 0.645

Prompt line: Field request: self-cleavage | item: `GGGGGCCACAGCAGAAGCGUUCACGUCGCGGCCCCAGUCAGAUUCUGGUGAAUUUGCGAAUUCUGCUGU`
Response line: 0.35

Prompt line: Field request: self-cleavage | item: `GGGGGCCACAGCACAAGCGUUCACGUCGCGGCCCCUGUCAGAUUCUGAUGAAUCUGCGAAUUCUGCUGU`
Response line: 0.703
